Data provenance is patent US20260000676A1.

- Target: ER (Homo sapiens (Human), UniProt P03372)
- Sequence (P03372 whole entry): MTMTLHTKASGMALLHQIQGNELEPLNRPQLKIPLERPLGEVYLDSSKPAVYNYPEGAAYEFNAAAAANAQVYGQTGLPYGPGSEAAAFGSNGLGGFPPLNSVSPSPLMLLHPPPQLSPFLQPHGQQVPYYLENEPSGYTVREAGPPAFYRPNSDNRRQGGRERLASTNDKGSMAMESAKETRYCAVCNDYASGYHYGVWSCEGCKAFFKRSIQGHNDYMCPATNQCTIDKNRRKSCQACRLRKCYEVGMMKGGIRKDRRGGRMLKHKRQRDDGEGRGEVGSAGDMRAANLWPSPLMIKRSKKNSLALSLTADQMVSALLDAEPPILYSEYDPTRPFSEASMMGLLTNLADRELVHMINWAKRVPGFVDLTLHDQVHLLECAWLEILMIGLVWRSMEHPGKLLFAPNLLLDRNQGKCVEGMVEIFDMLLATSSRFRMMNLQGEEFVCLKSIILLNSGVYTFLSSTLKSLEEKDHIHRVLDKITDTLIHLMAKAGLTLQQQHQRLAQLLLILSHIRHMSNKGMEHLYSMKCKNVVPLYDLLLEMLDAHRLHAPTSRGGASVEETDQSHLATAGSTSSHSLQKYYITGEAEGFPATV
- Assay Text: In-cell western (ICW) ER degradation assay in T47D cells
- Type: cell-based
- Measurement Conditions: maximal ER degradation, 16 hrs
Property Name: Dmax

Compound	Measurement
COc1cc(N2CCC(CN3CCC(c4ccc(N[C@@H]5CCC(=O)NC5=O)cc4)CC3)CC2)ccc1[C@@H]1c2ccc(O)cc2OC[C@@H]1c1ccccc1	25 to 50%
COc1cc(N2CCC(CN3CCN4c5ccc6c(c5OC[C@@H]4C3)CN([C@@H]3CCC(=O)NC3=O)C6=O)CC2)ccc1[C@H]1c2ccc(O)cc2OC[C@H]1c1ccccc1 (single isomer, unassigned)	≥ 75%
O=C1CC[C@@H](Nc2ccc(C3CCN(C[C@H]4COC5(CCN(c6ccc([C@@H]7c8ccc(O)cc8OC[C@@H]7c7ccccc7)cc6)CC5)C4)CC3)c(F)c2)C(=O)N1 (single isomer, unassigned)	50 to 75%
COc1cc(N2CCC(CN3CCN4c5ccc6c(c5OC[C@H]4C3)CN(C3CCC(=O)NC3=O)C6=O)CC2)ccc1[C@@H]1c2ccc(O)cc2OC[C@@H]1c1ccccc1 (single isomer, unassigned)	50 to 75%
O=C1CC[C@@H](Nc2ccc(C3CCN(C[C@@H]4COC5(CCN(c6ccc([C@H]7c8ccc(O)cc8OC[C@H]7c7ccccc7)cc6)CC5)C4)CC3)c(F)c2)C(=O)N1 (mixture of isomers)	≥ 75%
O=C1CC[C@@H](NC(=O)c2ccc(N3CCN(CC4COC5(CCN(c6ccc([C@H]7c8ccc(O)cc8OC[C@H]7c7ccccc7)cc6)CC5)C4)CC3)cn2)C(=O)N1 (single isomer, unassigned)	50 to 75%
O=C1CC[C@@H](N2Cc3cc4c(cc3C2=O)OC[C@@H]2CN(C[C@@H]3COC5(CCN(c6ccc([C@H]7c8ccc(O)cc8OC[C@H]7c7ccccc7)cc6)CC5)C3)CCN42)C(=O)N1	50 to 75%
O=C1CC[C@@H](N2Cc3cc4c(cc3C2=O)OCC2CN(CC3CCC5(CC3)CN(c3ccc([C@H]6c7ccc(O)cc7OC[C@H]6c6ccccc6)cc3)C5)CCN42)C(=O)N1 (stereo in doubt)	≥ 75%
O=C1CCC(NC(=O)c2ccc(N3CCN(CC4CCN(c5ccc([C@H]6c7ccc(O)cc7OC[C@H]6c6ccccc6)cc5F)CC4)CC3)cn2)C(=O)N1 (single isomer, unassigned)	50 to 75%
O=C1CCC(N2Cc3cc4c(cc3C2=O)OCC42CCN(CC3CCC4(CC3)CN(c3ccc([C@H]5c6ccc(O)cc6OC[C@H]5c5ccccc5)cc3)C4)CC2)C(=O)N1 (stereo partly drawn)	50 to 75%
COc1cc(N2CCC(CN3CCN(c4ccc(C(=O)NC5CCC(=O)NC5=O)nc4)CC3)CC2)ccc1[C@H]1c2ccc(O)cc2OC[C@H]1c1ccccc1 (single isomer, unassigned)	50 to 75%
O=C1CC[C@H](NC(=O)c2ccc3c(n2)OC[C@H]2CN(C[C@H]4COC5(CCN(c6ccc([C@@H]7c8ccc(O)cc8OC[C@@H]7c7ccccc7)cc6)CC5)C4)CCN32)C(=O)N1	50 to 75%
O=C1CC[C@@H](Nc2ccc(C3CCN(CC4CCC5(CC4)CN(c4ccc([C@H]6c7ccc(O)cc7OC[C@H]6c6ccccc6)cc4)C5)CC3)cc2)C(=O)N1 (single isomer, unassigned)	50 to 75%
O=C1CC[C@@H](NC(=O)c2ccc(N3CCC(CN4CC5(CCN(c6ccc([C@H]7c8ccc(O)cc8OC[C@H]7c7ccccc7)cc6)CC5)C4)CC3)cn2)C(=O)N1 (single isomer, unassigned)	50 to 75%
O=C1CCC(N2Cc3cc4c(cc3C2=O)CN(C(=O)C2CCN(C3CCN(c5ccc([C@@H]6c7ccc(O)cc7OC[C@@H]6c6ccccc6)cc5)CC3)CC2)C4)C(=O)N1 (single isomer, unassigned)	≥ 75%
O=C1CCC(N2Cc3cc(N4CCN(CC5CCN(c6ccc([C@@H]7c8ccc(O)cc8OC[C@@H]7c7ccccc7)cc6)CC5)CC4)ccc3C2=O)C(=O)N1 (single isomer, unassigned)	50 to 75%
O=C1CCC(N2Cc3cc4c(cc3C2=O)OC[C@@H]2CN(CC3CCN(c5ccc([C@H]6c7ccc(O)cc7OC[C@H]6c6ccccc6)cn5)CC3)CCN42)C(=O)N1 (single isomer, unassigned)	50 to 75%
COc1nc(C(=O)NC2CCC(=O)NC2=O)ccc1N1CCN(CC2CC3(CCN(c4ccc([C@H]5c6ccc(O)cc6OC[C@H]5c5ccccc5)cc4)CC3)C2)CC1 (single isomer, unassigned)	25 to 50%
